Tested on: 817829-284-R-J1-PDC multi-cell spheroid viability;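 further: spheroids exposed to agents for seven days before readout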
Assay: Anticancer human tumor 817829-284-R-J1-PDC patient-derived colon adenocarcinoma cell line growth inhibition [PI3K]
Settings: second compound 0.316 µM; first compound 0.316 µM; hits give low values
Categories are defined by ranges of viability, T/C, namely lower: < 60%; middle: ≥ 60% and < 70%; upper: ≥ 70%

Exercise: Kindly identify the class of CCCS(=O)(=O)Nc1ccc(F)c(C(=O)c2c[nH]c3ncc(-c4ccc(Cl)cc4)cc23)c1F + CC(Nc1ccc2c(c1)OCCn1cc(N3C(=O)OCC3C(F)F)nc1-2)C(N)=O .
Solution: lower

Exercise: Class? Entry: CC(Cn1ccc(-c2ccc(C#N)c(Cl)c2)n1)NC(=O)c1cc(C(C)O)[nH]n1 (stereo not drawn) + CC(Nc1ccc2c(c1)OCCn1cc(N3C(=O)OCC3C(F)F)nc1-2)C(N)=O
Solution: upper

Exercise: Band for CC(Cn1ccc(-c2ccc(C#N)c(Cl)c2)n1)NC(=O)c1cc(C(C)O)[nH]n1 (stereo not drawn) + CC(Nc1ncnc2nc[nH]c12)c1cc2cccc(Cl)c2c(=O)n1-c1ccccc1 ?
Solution: upper

Exercise: Class (by measured viability, T/C) for CC1(C)CCC(CN2CCN(c3ccc(C(=O)NS(=O)(=O)c4ccc(NCC5CCOCC5)c([N+](=O)[O-])c4)c(Oc4cnc5[nH]ccc5c4)c3)CC2)=C(c2ccc(Cl)cc2)C1 + Cc1nc(NC(=O)N2CCCC2C(N)=O)sc1-c1ccnc(C(C)(C)C(F)(F)F)c1
Solution: upper

Exercise: Which category fits this record: C#Cc1c(F)ccc2cc(O)cc(-c3ncc4c(N5CC6CCC(C5)N6)nc(OCC56CCCN5CC(F)C6)nc4c3F)c12 (stereo not drawn) + COc1c(OCCCN2CCOCC2)ccc2c3n(c(=NC(=O)c4cnc(N)nc4)nc12)CCN3
Solution: lower

Exercise: Lab log: CC(Cn1ccc(-c2ccc(C#N)c(Cl)c2)n1)NC(=O)c1cc(C(C)O)[nH]n1 (stereo not drawn) + Cc1nc(NC(=O)N2CCCC2C(N)=O)sc1-c1ccnc(C(C)(C)C(F)(F)F)c1 — assign viability, T/C category
Solution: upper

Exercise: Which class is correct for the following compound? C[C@@H](NC(=O)c1ncnc(N)c1Cl)c1ncc(C(=O)Nc2cc(C(F)(F)F)c(Cl)cn2)s1 + Cc1nc(NC(=O)N2CCCC2C(N)=O)sc1-c1ccnc(C(C)(C)C(F)(F)F)c1
Solution: middle

Exercise: Would you mind sorting CNC(=O)c1ccc(N2C(=S)N(c3ccc(C#N)c(C(F)(F)F)c3)C(=O)C2(C)C)cc1F + CC(Nc1ccc2c(c1)OCCn1cc(N3C(=O)OCC3C(F)F)nc1-2)C(N)=O into the appropriate category?
Solution: lower

Exercise: Please indicate the class for C=CC(=O)N1CCN(c2nc(=O)n(-c3c(C)ccnc3C(C)C)c3nc(-c4c(O)cccc4F)c(F)cc23)C(C)C1 (stereo not drawn) + Cc1nc(NC(=O)N2CCCC2C(N)=O)sc1-c1ccnc(C(C)(C)C(F)(F)F)c1 based on its viability, T/C.
Solution: upper

Exercise: Category of CC1(C)CCC(Nc2ncc(C(F)(F)F)c(-c3c[nH]c4c(P(C)(C)=O)c(C#N)ccc34)n2)CN1 (stereo not drawn) + Cc1nc(NC(=O)N2CCCC2C(N)=O)sc1-c1ccnc(C(C)(C)C(F)(F)F)c1 :
Solution: lower

Exercise: Into which category would you place C=CC(=O)N1CCN(c2nc(=O)n(-c3c(C)ccnc3C(C)C)c3nc(-c4c(O)cccc4F)c(F)cc23)C(C)C1 (stereo not drawn) + CC(Nc1ccc2c(c1)OCCn1cc(N3C(=O)OCC3C(F)F)nc1-2)C(N)=O ?
Solution: middle
